Source listed as the RNAGym collection of RNA variant scans (doi:10.1073/pnas.2313332121).

Each entry below carries its recorded polymerase ribozyme fitness (log ratio).
B1: TPR t1 (parent)
chain: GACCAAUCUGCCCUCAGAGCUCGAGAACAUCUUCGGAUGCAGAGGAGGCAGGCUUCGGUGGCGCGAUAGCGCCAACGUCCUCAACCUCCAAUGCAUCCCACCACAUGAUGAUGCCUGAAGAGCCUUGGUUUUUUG

Variants of: B1
Assay: polymerase ribozyme fitness, log enrichment relative to wild type (log ratio); higher = more active; in vitro selection for triplet polymerase activity
readout.name: polymerase ribozyme fitness (log ratio)

mutation_descriptor="G36A C82G C123U" observed_measurement=-0.368
mutation_descriptor="C62U U129C" observed_measurement=0.0239
mutation_descriptor="G51C A111U" observed_measurement=-6.8
mutation_descriptor="A27G A37U A121G" observed_measurement=0.646
mutation_descriptor="U21A G57U C85U G120U" observed_measurement=-2.48
mutation_descriptor="C8A A18C U21G A68G" observed_measurement=-6.09
mutation_descriptor="C49A C70U" observed_measurement=-1.18
mutation_descriptor="C101A U106C G110C U134G" observed_measurement=-4.82
mutation_descriptor="A16U U32A A46U A103C A111G" observed_measurement=-5.71
mutation_descriptor="G10C U38C C40U C64U C101A" observed_measurement=-1.8
mutation_descriptor="A6U C13G C56U G77C" observed_measurement=-1.6
mutation_descriptor="G36A G42A C72U" observed_measurement=-4.34
mutation_descriptor="C3U A43U C56G U81A A95U A111G G122A" observed_measurement=-5.71
mutation_descriptor="C101G C115U" observed_measurement=-3.55
mutation_descriptor="G39U C80U C101A A111U" observed_measurement=-5.03
